Molecular target: AKT1 WT (Homo sapiens)
Construct: expressed in transfected cells; host or cells: HEK293
Sequence (P31749 whole entry): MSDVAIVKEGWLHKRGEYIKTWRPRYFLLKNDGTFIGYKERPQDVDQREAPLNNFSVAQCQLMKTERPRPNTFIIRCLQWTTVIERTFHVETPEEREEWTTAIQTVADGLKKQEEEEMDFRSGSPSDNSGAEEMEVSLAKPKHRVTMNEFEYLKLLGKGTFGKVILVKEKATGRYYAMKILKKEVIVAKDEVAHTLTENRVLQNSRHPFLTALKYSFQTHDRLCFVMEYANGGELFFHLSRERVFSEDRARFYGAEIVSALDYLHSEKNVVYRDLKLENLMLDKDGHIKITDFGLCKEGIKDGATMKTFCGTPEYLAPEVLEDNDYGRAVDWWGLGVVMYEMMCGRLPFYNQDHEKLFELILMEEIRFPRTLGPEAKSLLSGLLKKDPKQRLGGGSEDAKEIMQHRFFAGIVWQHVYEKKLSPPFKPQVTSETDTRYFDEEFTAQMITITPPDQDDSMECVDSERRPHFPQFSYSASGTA
Test: Live cell AKT1 WT target engagement by NanoBRET competitive probe displacement in HEK293 cells
Type: binding
Settings: NanoBRET competitive probe displacement, live HEK293 cells, 2 h at 37° C.; read-out: AKT1 WT IC50
// reported pIC50 for each item listed
Scale: negative log10 of molar concentration, which is what pIC50 denotes.

molecule="Cn1c(C(=O)N[C@H]2CCc3cc(-n4c(-c5cccnc5N)nc5ccc(-n6nccn6)nc54)ccc32)cnc1C1CC1 [Compound 540]" targetofassay="AKT1 WT (Homo sapiens)" metric=pIC50 resultnumber=6.97

Please look up its pIC50: C#Cc1cc(-n2nccn2)nc2c1nc(-c1cccnc1N)n2-c1ccc2c(c1)CC[C@@H]2NC(=O)c1ccc(C)nc1 [Compound 587]
6.94

Please look up its pIC50: CN1CCN(c2ccn(-c3ccc4nc(-c5cccnc5N)n(-c5ccc6c(c5)CC[C@@H]6NC5CCN(C(=O)C6CC6)CC5)c4n3)n2)CC1 [Compound 563]
8.74

----------
Biological target: AKT1 E17K (Homo sapiens, UniProt P31749, E17K)
Construct: expressed in transfected cells; host or cells: HEK293
Sequence (P31749 whole entry E17K): as the sequence (P31749 whole entry) above, with E17K counted along it
Experiment: Live cell AKT1 E17K target engagement by NanoBRET competitive probe displacement in HEK293 cells
Format: binding
Settings: NanoBRET competitive probe displacement, live HEK293 cells, 2 h at 37° C.
pIC50: −log10 of the molar value.
Record 1 whenever pIC50 is at 8 or higher; record 0 when lower.

Worked set:
compound=Nc1ncccc1-c1nc2ccc(-n3cccn3)nc2n1-c1ccc2c(c1)CC[C@@H]2NC1CCN(S(=O)(=O)C2CC2)CC1 targetofassay="AKT1 E17K (Homo sapiens, UniProt P31749, E17K)" classification=0
compound=N#Cc1ncnc(N2CCC(N[C@H]3CCc4cc(-n5c(-c6cccnc6N)nc6ccc(-n7cccn7)nc65)ccc43)CC2)n1 targetofassay="AKT1 E17K (Homo sapiens, UniProt P31749, E17K)" classification=1
compound=COc1cc(C(=O)N[C@H]2CCc3cc(-n4c(-c5ccccc5F)nc5ccc(-n6cccn6)nc54)ccc32)ccn1 targetofassay="AKT1 E17K (Homo sapiens, UniProt P31749, E17K)" classification=0

Quick check, pIC50 >= 8? COc1cc(-c2ccc3nc(-c4cccnc4N)n(-c4ccc5c(c4)CC(F)[C@@H]5NC4CCN(C(=O)C5CC5)CC4)c3n2)ccn1 (stereo partly drawn)
0

----------
// reported log10 of IC50 for each item listed
Biological target: AKT2 (Homo sapiens, UniProt P31751)
Construct: expressed in transfected cells; host or cells: HEK293
Sequence (P31751 whole entry): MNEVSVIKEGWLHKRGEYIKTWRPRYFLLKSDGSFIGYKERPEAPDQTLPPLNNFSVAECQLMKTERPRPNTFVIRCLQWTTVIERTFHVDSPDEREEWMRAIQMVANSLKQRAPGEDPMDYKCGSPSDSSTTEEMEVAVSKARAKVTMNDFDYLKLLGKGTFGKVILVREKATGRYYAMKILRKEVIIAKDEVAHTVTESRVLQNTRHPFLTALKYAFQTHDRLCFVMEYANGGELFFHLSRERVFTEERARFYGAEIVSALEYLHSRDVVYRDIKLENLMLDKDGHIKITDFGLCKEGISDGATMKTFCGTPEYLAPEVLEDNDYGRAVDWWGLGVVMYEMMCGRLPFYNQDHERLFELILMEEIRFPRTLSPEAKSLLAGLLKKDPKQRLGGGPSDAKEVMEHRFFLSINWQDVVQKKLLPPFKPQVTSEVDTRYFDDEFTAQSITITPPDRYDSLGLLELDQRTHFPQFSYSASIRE
Assay: Live cell AKT2 target engagement by NanoBRET competitive probe displacement in HEK293 cells
Assay type: binding
Conditions: NanoBRET live cell target engagement, HEK293 cells, 2 h at 37° C.; read-out: AKT2 IC50
Please note: log10 values; quantity IC50; unit µM.

Completed entries (count: 5):
molecule=Cn1cc(C(=O)N[C@H]2CCc3cc(-n4c(-c5cccnc5N)nc5ccc(-n6cccn6)nc54)ccc32)ccc1=O targetofassay="AKT2 (Homo sapiens, UniProt P31751)" resultnumber=-0.07
molecule=Cc1ncc(C(=O)N[C@H]2CCc3cc(-n4c(-c5cccnc5N)nc5ccc(-n6nccn6)nc54)ccc32)c(C)n1 targetofassay="AKT2 (Homo sapiens, UniProt P31751)" resultnumber=0.06
molecule=Cc1ccc(C(=O)N[C@H]2CCc3cc(-n4c(-c5cccnc5N)nc5ccc(-c6ccn(C(F)F)n6)nc54)ccc32)cn1 targetofassay="AKT2 (Homo sapiens, UniProt P31751)" resultnumber=-1.30
molecule=Cc1ncccc1C(=O)N[C@H]1CCc2cc(-n3c(-c4cccnc4N)nc4c(C)cc(-n5cccn5)nc43)ccc21 targetofassay="AKT2 (Homo sapiens, UniProt P31751)" resultnumber=-1.60
molecule="Cc1ncccc1OCC1CCc2cc(-n3c(-c4cccnc4N)nc4ccc(-n5cccn5)nc43)ccc21 (single isomer, unassigned) [Compound 252]" targetofassay="AKT2 (Homo sapiens, UniProt P31751)" resultnumber=0.42

Please look up its log10 of IC50: Cc1cc(C(=O)N[C@H]2CCc3cc(-n4c(-c5cccnc5N)nc5ccc(-n6cccn6)nc54)ccc32)c(C)nc1C
-0.97

Please look up its log10 of IC50: Nc1ncccc1-c1nc2ccc(-n3cccn3)nc2n1-c1ccc2c(c1)CC[C@@H]2n1ccnc1
-0.78

Please look up its log10 of IC50: Nc1ncccc1-c1nc2ccc(-n3cccn3)nc2n1-c1ccc2c(c1)CC[C@@H]2NC(=O)c1ccc(C2CC2)nc1
-1.77
